The measurements presented in this section are drawn from patent US20140011738A1.

Biological target: T1, GIP receptor (UniProt P48546 22-466, limits assumed)
T1 sequence (looked up): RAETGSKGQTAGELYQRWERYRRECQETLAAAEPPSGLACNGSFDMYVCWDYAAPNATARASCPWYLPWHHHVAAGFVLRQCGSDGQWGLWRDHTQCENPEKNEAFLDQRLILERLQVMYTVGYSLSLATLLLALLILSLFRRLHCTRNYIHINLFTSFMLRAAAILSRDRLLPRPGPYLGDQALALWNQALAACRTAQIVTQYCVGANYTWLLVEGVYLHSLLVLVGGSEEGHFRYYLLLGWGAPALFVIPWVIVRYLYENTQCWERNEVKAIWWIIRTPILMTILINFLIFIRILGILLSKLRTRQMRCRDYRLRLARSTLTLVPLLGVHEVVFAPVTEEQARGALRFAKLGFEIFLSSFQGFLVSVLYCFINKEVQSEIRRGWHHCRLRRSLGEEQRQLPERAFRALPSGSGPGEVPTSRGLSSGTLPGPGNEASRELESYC
Experiment: cell-based or functional assay
*1 amine or outer side, *2 acyl side, *3 side chain or, on linkers, in order; H or OH if unused. Where no end group is shown, it is not given here. Side-chain parts run from the residue outwards. [ ]: non-standard residue; d: D form. The star is where a group is joined. γGlu = O=C(O)[C@H](CCC(=O)[*:2])N[*:1]; Palmitoyl = CCCCCCCCCCCCCCCC(=O)*; Aib = CC(C)(N)C(=O)O
I'd be grateful if you could share measured EC50 at GIP Receptor for these entries.
Give the value in pM but do not write pM after it.

What value of EC50 at GIP Receptor has been reported for the following binder? H[Aib]QGTFTSDYSKYLEERAAQDFVQWLLDGGPSSGAPPPSK([γGlu-γGlu-Palmitoyl])G-NH2 [peptide of SEQ ID NO: 15]
8

What value of EC50 at GIP Receptor has been reported for the following binder? H[Aib]QGTFTSEYSKYLDERAAQDFVQWLLDGGPSSGAPPPSK([γGlu-γGlu-Palmitoyl])G-NH2 [peptide of SEQ ID NO: 16]
54

What value of EC50 at GIP Receptor has been reported for the following binder? H[Aib]QGTFTSDK([γGlu-Palmitoyl])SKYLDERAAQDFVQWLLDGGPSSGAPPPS-NH2 [peptide of SEQ ID NO: 10]
4

What value of EC50 at GIP Receptor has been reported for the following binder? H[Aib]QGTFTSDYAKYLDERAAQDFVQWLLDGGPSSGAPPPSK([γGlu-γGlu-Palmitoyl])G-NH2 [peptide of SEQ ID NO: 17]
20

What value of EC50 at GIP Receptor has been reported for the following binder? H[Aib]QGTFTSDYSKYLDERAAQDFVQWLLDGGPSSGAPPPSK([γGlu-γGlu-Palmitoyl])G-NH2 [peptide of SEQ ID NO: 11]
24
